Hello, the source for this data is patent US20240279318A1, in case you need it.

# kon values compiled below
target: T1, AFP158/HLA-A*02:01 complex (human); assay: SPR, crude scFv captured, pMHC analyte;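 further: complex injected at several concentrations over the chip, association phase then running buffer for dissociation, KD derived from on- and off-rates computed from both curves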
T1 construct: flowed as analyte in SPR

binder	kon / M⁻¹ s⁻¹
AS170036 VL1VH1-57H98Q108D (scFv, also called 65-AS170036 VL1VH1-57H98Q108D) scFv: QSALTQPRSVSGSPGQSVTISCAGTSSDVGSENYVSWYQQHPGKAPKLMIYQVNKRASGVPDRFSGSKSGNTASLTISGLQAEDEADYYCASYRSSDQNIVFGGGTKLTVLGGGGSGGGGSGGGGSEVQLVESGGGLVQPGGSLRLSCAASGFTFSSYAMSWVRQAPGKGLEWVSTINSGTGHPYYADSVKGRFTISRDNSKNTLYLQMNSLRAEDTAVYYCAKNFFDGSWFLDPPAMDYWGQGTLVTVSSHHHHHH	250000
AS170036 VL1VH1-56Y98Q108A (scFv, also called 46-AS170036 VL1VH1-56Y98Q108A) scFv: QSALTQPRSVSGSPGQSVTISCAGTSSDVGSENYVSWYQQHPGKAPKLMIYQVNKRASGVPDRFSGSKSGNTASLTISGLQAEDEADYYCASYRSSDQNIVFGGGTKLTVLGGGGSGGGGSGGGGSEVQLVESGGGLVQPGGSLRLSCAASGFTFSSYAMSWVRQAPGKGLEWVSTINSGTYSPYYADSVKGRFTISRDNSKNTLYLQMNSLRAEDTAVYYCAKNFFDGSWFLAPPAMDYWGQGTLVTVSSHHHHHH	230000
AS170036 VL1VH1-57M98F108A (scFv, also called 76-AS170036 VL1VH1-57M98F108A) scFv: QSALTQPRSVSGSPGQSVTISCAGTSSDVGSENYVSWYQQHPGKAPKLMIYQVNKRASGVPDRFSGSKSGNTASLTISGLQAEDEADYYCASYRSSDFNIVFGGGTKLTVLGGGGSGGGGSGGGGSEVQLVESGGGLVQPGGSLRLSCAASGFTFSSYAMSWVRQAPGKGLEWVSTINSGTGMPYYADSVKGRFTISRDNSKNTLYLQMNSLRAEDTAVYYCAKNFFDGSWFLAPPAMDYWGQGTLVTVSSHHHHHH	260000
